biological target: FGFR2 (Homo sapiens (Human), UniProt P21802); experiment: Biochemical FGFR2 Caliper assay
Sequence (P21802 22-821): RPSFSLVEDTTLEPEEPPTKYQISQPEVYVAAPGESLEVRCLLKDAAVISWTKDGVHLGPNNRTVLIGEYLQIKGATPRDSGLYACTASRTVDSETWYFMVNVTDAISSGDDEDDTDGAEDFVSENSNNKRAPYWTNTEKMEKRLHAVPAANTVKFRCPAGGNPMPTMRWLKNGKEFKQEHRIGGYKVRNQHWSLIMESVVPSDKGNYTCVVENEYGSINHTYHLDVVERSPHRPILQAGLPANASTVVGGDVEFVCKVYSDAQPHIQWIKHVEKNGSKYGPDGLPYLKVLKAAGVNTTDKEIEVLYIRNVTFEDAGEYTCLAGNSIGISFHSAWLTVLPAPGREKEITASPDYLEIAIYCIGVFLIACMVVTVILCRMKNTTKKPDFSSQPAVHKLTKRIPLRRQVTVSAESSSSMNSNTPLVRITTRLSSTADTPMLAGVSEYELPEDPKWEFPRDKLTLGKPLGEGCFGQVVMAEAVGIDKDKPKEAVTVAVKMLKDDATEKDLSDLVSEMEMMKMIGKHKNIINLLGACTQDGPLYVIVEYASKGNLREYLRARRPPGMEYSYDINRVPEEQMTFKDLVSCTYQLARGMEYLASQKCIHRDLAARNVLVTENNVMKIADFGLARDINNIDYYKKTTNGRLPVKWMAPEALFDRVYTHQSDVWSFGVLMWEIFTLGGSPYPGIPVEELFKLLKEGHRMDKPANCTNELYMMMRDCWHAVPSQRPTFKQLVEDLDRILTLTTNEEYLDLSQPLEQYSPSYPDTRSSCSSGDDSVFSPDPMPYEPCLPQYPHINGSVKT
Reported values of IC50 for individual entries

{"molecule": "C=CC(=O)Nc1ccc(-c2c(-c3ccc(Oc4nccc(C)n4)c(F)c3)c3c(C)ncnc3n2C)c(Cl)c1", "IC50": "< 100 nM"}
{"molecule": "C#Cc1cnc2cc(-c3c(-c4ccc(Oc5nccc(C)n5)c(F)c4)c4c(C)ncnc4n3C)ccc2n1", "IC50": "< 100 nM"}
{"molecule": "C#Cc1cc(C)c(-c2c(-c3ccc(Oc4nccc(C)n4)cc3)c3c(N)ncnc3n2C)nn1", "IC50": "< 100 nM"}
{"molecule": "C=CC(=O)Nc1ccc(-c2c(-c3cc4ccccc4s3)c3c(N)ncnc3n2C)cc1", "IC50": "< 100 nM"}
{"molecule": "C#Cc1cc(C)c(-c2c(C3=CC[C@@H](C(=O)N4CCC[C@H]4C#N)CC3)c3c(C)ncnc3n2C)c(C)n1 (atropisomer, axis not shown) [Example 1464]", "IC50": "250 to 1000 nM"}
{"molecule": "C#Cc1cnc(-c2c(-c3ccc(Oc4nccc(C)n4)cc3)c3c(N)ncnc3n2C)cn1", "IC50": "< 100 nM"}

IN: Can you look up the measured IC50 of C#Cc1cnc(-c2c(-c3ccc(Oc4nccc(C)n4)cc3)c3c(N)ncnc3n2C)c(C)n1 for me?
OUT: 1000 to 100000 nM
